These entries and their values trace back to patent US10501734B2.

Assay: ATP-PPi exchange assay (amino acid activation)
Type: biochemical
Details: nsAA pAcF
Protocol: A 25 μl ATP-PPi exchange reaction contained the following components: 100 mM HEPES-KOH (pH 7.5), 30 mM KCl, 10 mM MgCl2, 2 mM DTT, 2 mM KF, 2 mM NaPPi, 5 mM ATP, […], 2 μCi/μl of […] (PerkinElmer) and varied concentrations of amino acids (0.25, 0.5, 1.25, 2.5, 5, 10, and 20 mM, respectively). The reactions were incubated at 37° C. […] The ratio of ATP to PPi was determined to monitor reaction progress. […] The data were analyzed by GraFit 5.0 (Erithacus Software).
assay endpoint: kcat

{"columns": ["molecule", "assay endpoint", "observed measurement"],
 "data": [
  ["pAcFRS.1: pAcFRS variant A167D, SEQ ID NO: 2 (protein) MDEFEMIKRNTSEIISEEELREVLKKDEKSALIGFEPSGKIHLGHYLQIKKMIDLQNAGFDIIILLADLHAYLNQKGELDEIRKIGDYNKKVFEAMGLKAKYVYGSEFQLDKDYTLNVYRLALKTTLKRARRSMELIAREDENPKVAEVIYPIMQVNGCHYRGVDVDVGGMEQRKIHMLARELLPKKVVCIHNPVLTGLDGEGKMSSSKGNFIAVDDSPEEIRAKIKKAYCPAGVVEGNPIMEIAKYFLEYPLTIKRPEKFGGDLTVNSYEELESLFKNKELHPMRLKNAVAEELIKILEPIRKRL", "kcat", "6.84 ± 0.64 ×10^−2 s^−1"]
]}
